Below are compounds with their IC50 as measured on UniProt:Q9P2K8.

COc1ncc(Cl)cc1S(=O)(=O)Nc1cccc(-c2cc3cnc(NC(C)=O)cc3nc2C)c1F    ≤ 100 nM
CNc1ncc2cc(-c3cccc(NS(=O)(=O)c4cc(Cl)cnc4OC)c3F)c(OCCOC)nc2n1    ≤ 100 nM

Now for the compound whose IC50 we want.
Entry `CNC(=O)c1cc(Cl)cc(S(=O)(=O)Nc2cccc(-c3cc4cnc(NC)nc4nc3NC)c2F)c1Cl` , system UniProt:Q9P2K8: what IC50 was measured?
1000 to 10000 nM

====

Below are compounds with their pIC50 as measured on GCN2 kinase (Homo sapiens (Human), UniProt Q9P2K8).
Sequence (Q9P2K8 whole entry): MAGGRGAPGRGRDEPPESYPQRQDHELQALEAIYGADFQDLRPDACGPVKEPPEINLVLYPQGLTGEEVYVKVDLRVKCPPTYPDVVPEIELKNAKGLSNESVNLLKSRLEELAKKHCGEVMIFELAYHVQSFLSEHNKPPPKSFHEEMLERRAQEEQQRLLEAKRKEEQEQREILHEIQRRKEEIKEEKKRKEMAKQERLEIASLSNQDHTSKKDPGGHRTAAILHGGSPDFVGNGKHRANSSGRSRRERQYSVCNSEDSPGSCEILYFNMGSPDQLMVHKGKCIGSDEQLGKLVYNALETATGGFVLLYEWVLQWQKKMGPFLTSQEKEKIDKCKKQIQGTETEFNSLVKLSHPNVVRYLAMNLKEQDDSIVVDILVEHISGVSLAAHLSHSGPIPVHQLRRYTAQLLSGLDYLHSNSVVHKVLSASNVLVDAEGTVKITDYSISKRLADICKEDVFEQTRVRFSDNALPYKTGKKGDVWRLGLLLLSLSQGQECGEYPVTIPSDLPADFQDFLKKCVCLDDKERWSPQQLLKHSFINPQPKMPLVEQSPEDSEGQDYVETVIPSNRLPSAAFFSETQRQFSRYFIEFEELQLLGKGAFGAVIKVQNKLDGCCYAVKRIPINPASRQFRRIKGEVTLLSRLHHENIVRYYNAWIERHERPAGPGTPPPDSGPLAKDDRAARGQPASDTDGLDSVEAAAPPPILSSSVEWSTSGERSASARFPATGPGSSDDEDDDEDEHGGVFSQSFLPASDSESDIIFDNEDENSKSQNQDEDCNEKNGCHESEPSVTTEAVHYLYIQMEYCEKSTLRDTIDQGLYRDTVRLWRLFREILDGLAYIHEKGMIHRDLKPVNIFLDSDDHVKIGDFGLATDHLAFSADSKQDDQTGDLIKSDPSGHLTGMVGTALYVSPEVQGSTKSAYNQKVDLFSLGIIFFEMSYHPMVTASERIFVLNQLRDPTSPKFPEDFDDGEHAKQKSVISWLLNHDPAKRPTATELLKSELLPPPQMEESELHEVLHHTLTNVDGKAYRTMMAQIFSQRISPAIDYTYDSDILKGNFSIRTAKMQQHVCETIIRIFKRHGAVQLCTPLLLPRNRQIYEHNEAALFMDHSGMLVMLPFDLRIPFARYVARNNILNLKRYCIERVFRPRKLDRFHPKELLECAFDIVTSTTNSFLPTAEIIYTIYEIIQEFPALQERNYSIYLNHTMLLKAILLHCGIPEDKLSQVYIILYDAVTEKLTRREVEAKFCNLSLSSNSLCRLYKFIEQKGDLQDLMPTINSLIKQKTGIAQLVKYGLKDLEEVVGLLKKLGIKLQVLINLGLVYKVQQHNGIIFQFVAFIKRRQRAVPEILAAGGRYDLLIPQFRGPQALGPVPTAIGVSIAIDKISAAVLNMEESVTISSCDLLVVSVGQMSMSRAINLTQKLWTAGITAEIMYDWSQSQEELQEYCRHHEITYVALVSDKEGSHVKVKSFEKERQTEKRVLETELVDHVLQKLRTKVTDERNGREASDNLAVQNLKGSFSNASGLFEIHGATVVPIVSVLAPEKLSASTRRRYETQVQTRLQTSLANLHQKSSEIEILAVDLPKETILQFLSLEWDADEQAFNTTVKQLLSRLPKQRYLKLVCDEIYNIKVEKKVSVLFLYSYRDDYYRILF
pIC50: −log10 of the molar value.

CNc1nc2nc(NC(=O)C3CC3)ncc2cc1-c1cccc(NS(=O)(=O)c2cc(Cl)cnc2OC)c1F    6.30 to 7.00
CNc1ncc2cc(-c3cccc(NS(=O)(=O)c4cc(Cl)cc(CO)c4F)c3F)c(NC)nc2n1    ≥ 7.00
CNc1ncc2cc(-c3cccc(NS(=O)(=O)c4cc(Cl)cnc4OC)c3C)ccc2n1    6.30 to 7.00

For `CNc1ncc2cc(-c3cccc(NS(=O)(=O)c4cc(OC)ccc4Cl)c3F)c(NC)nc2n1` , what is its reported pIC50?
≥ 7.00

====

# Test system: ATF4 in CCRF-CEM leukemia cells (PERK)
# protocolDescription: CCRF-CEM TG ATF4 ELISA, phenotypic assay for cellular inhibition of PERK preactivated by thapsigargin
# Format: cell-based
# conditionSet: Homo sapiens; Thapsigargin (1 μM) stimulated CCRF-CEM cells
measurementKind: IC50

Consider the following illustrative entries.
COc1ncc(Cl)cc1S(=O)(=O)Nc1cccc(-c2ccc3nc(N)ncc3c2)c1F [Example 33]    1 to 10 µM
CNc1cc2nc(N)c(-c3cccc(NS(=O)(=O)c4cc(Cl)cc(CO)c4Cl)c3F)cc2cn1 [Example 171]    ≤ 0.1 µM
CNc1ncc2cc(-c3cc(NS(=O)(=O)c4cc(Cl)cnc4OC)ccc3F)c(NC)nc2n1 [Example 39]    1 to 10 µM

Entry CNc1cc2nc(C)c(-c3cc(NS(=O)(=O)c4cc(Cl)cc(CO)c4Cl)c(F)cc3Br)cc2cn1 [Example 14] , system ATF4 in CCRF-CEM leukemia cells (PERK): what IC50 was measured?
1 to 10 µM

Queued: CNc1ncc2cc(-c3cccc(NS(=O)(=O)c4cc(OC)ccc4Cl)c3F)c(NC)nc2n1 [Example 168]
1 to 10 µM

Queued: CNc1ncc2cc(-c3cc(NS(=O)(=O)c4cc(Cl)cnc4OC)c(F)cc3C)c(C)nc2n1 [Example 17]
1 to 10 µM

Queued: CNc1nc2nc(N)ncc2cc1-c1cccc(NS(=O)(=O)c2cc(Cl)cnc2OC)c1F [Example 109]
0.5 to 1 µM

====

pIC50: −log10 of the molar value.
Below are molecules with their pIC50 as measured on GCN2 kinase (Homo sapiens (Human), UniProt Q9P2K8).

For CNc1ncc2cc(-c3cc(F)cc(NS(=O)(=O)c4cc(Cl)cnc4OC)c3)c(NC)nc2n1 [Example 11] , what is its reported pIC50?
≥ 7.00

====

Below are molecules with their IC50 as measured on PERK kinase (Homo sapiens (Human), UniProt Q9NZJ5).
Sequence (Q9NZJ5 other isoform, or with tags, fused parts or gaps): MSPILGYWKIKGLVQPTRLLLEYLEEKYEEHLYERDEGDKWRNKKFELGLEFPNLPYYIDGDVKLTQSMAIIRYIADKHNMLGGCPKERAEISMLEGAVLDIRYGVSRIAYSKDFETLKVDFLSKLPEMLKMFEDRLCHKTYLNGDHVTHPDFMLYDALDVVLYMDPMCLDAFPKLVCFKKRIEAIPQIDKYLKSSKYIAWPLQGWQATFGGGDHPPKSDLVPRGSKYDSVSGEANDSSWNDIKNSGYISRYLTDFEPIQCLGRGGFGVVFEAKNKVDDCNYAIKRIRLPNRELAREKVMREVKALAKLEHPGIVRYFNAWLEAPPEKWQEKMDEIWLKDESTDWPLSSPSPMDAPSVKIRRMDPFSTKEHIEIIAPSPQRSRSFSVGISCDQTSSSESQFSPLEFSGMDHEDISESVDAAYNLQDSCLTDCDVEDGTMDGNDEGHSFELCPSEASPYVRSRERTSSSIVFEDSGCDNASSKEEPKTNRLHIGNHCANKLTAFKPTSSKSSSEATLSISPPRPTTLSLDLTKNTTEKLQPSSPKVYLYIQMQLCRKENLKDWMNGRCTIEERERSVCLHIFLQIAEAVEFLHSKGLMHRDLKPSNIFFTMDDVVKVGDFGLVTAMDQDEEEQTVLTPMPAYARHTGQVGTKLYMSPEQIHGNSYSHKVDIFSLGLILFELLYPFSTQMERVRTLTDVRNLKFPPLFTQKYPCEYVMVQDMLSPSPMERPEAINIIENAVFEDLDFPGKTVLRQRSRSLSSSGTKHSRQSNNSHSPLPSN

CNc1ncc2cc(-c3cc(NS(=O)(=O)c4cc(Cl)cc(Cl)c4)c(F)cc3C)c(C)nc2n1    100 to 500 nM
CNc1ncc2cc(-c3cc(NS(=O)(=O)c4cc(Cl)cnc4OC)ccc3Cl)ccc2n1    ≤ 100 nM
CNc1ncc2cc(-c3cccc(NS(=O)(=O)c4cc(Cl)cnc4OC4CC4)c3F)c(NC)nc2n1    100 to 500 nM
CCNc1ncc2cc(-c3cccc(NS(=O)(=O)c4cc(Cl)cnc4OC)c3F)c(NC)nc2n1    ≤ 100 nM
CNc1ncc2cc(-c3cc(NS(=O)(=O)c4cc(Cl)cnc4OC)c(F)cc3C)c(NC)nc2n1    1000 to 10000 nM

For `CNc1cc2ncc(-c3cc(NS(=O)(=O)c4cc(Cl)cnc4OC)ccc3F)cc2cn1` , what is its reported IC50?
500 to 1000 nM

Queued: `COc1ncc(Cl)cc1S(=O)(=O)Nc1cc(F)cc(-c2cc3cnc(N)nc3nc2N)c1`
≤ 100 nM

Queued: `COc1ncc(Cl)cc1S(=O)(=O)Nc1cccc(-c2cc3cnc(N)cc3nc2C)c1F`
≤ 100 nM

Queued: `CNc1ncc2cc(-c3cc(NS(=O)(=O)c4cc(Cl)cnc4OC)cc(F)c3C)c(C)nc2n1`
≤ 100 nM

Queued: `CNc1cc2ncc(-c3cccc(NS(=O)(=O)c4cc(Cl)cc(CO)c4Cl)c3F)cc2cn1`
≤ 100 nM

Queued: `COc1nc2nc(N)ncc2cc1-c1cc(F)cc(NS(=O)(=O)c2cc(Cl)cnc2OC)c1`
100 to 500 nM

Queued: `CNc1ncc2cc(-c3cccc(NS(=O)(=O)c4cc(Cl)cc(CO)c4F)c3F)c(NC)nc2n1`
≤ 100 nM

Queued: `CNc1ncc2cc(-c3cccc(NS(=O)(=O)c4cc(Cl)cnc4OC)c3F)c(NCC3COC3)nc2n1`
100 to 500 nM

Queued: `CNc1ncc2cc(-c3cccc(NS(=O)(=O)c4cc(Cl)c(OC)cc4Cl)c3F)c(NC)nc2n1`
≤ 100 nM

Queued: `CNc1cc2nc(OC)c(-c3cccc(NS(=O)(=O)c4cc(Cl)cnc4OC)c3F)cc2cn1`
≤ 100 nM
